Biological target: HIV-1 protease (Human immunodeficiency virus type 1 group M subtype B)
Construct: 2.6 nM of HIV-1 protease
Test: Assay for inhibitory effect on HIV protease (residual enzyme activity, HPLC of substrate cleavage)
Assay type: biochemical
Details: HIV-1 protease 2.6 nM, pH 5.5; inhibition constant
pKi: −log10 of the molar value.
Label false (0) if pKi falls below 6; label true (1) in every other case.

Input: Does pKi meet or surpass 6 for "NC(=O)C[C@H](NC(=O)COc1ccc(F)cc1F)C(=O)N[C@@H](Cc1ccccc1)[C@H]1O[C@H]1CCc1ccccc1" ?
Output: false (0)

Input: Does pKi meet or surpass 6 for COC(=O)C(NC(=O)C(CCC(N)=O)NC(=O)C[C@@H]1O[C@@H]1[C@H](Cc1ccccc1)NC(=O)[C@H](CC(N)=O)NC(=O)COc1cccc2ccccc12)C(C)C (stereo partly drawn) ?
Output: true (1)

Input: Does pKi meet or surpass 6 for "CC[C@H](C)[C@H](NC(=O)C[C@@H]1O[C@@H]1[C@H](Cc1ccccc1)NC(=O)[C@H](CC(N)=O)NC(=O)c1ccc2ccccc2n1)C(=O)N(C)C" ?
Output: false (0)

Input: Does pKi meet or surpass 6 for "CC(C)[C@H](NC(=O)OCc1ccncc1)C(=O)NC[C@@H]1O[C@@H]1[C@H](Cc1ccccc1)NC(=O)[C@@H](NC(=O)OCc1ccncc1)C(C)C" ?
Output: false (0)

Input: Does pKi meet or surpass 6 for "CC[C@H](C)[C@H](NC(=O)C[C@@H]1O[C@@H]1[C@H](Cc1ccccc1)NC(=O)[C@H](CC(N)=O)NC(=O)c1ccc2ccccc2n1)C(=O)OC" ?
Output: true (1)

Input: Does pKi meet or surpass 6 for "CONC(=O)[C@@H](NC(=O)C[C@@H]1O[C@@H]1[C@H](Cc1ccccc1)NC(=O)[C@H](CC(N)=O)NC(=O)c1ccc2ccccc2n1)C(C)C" ?
Output: true (1)

Input: Does pKi meet or surpass 6 for COC(=O)C(CCC(N)=O)NC(=O)C[C@@H]1O[C@@H]1[C@H](Cc1ccccc1)NC(=O)[C@H](CC(N)=O)NC(=O)OCc1ccccc1 (stereo partly drawn) ?
Output: true (1)

Input: Does pKi meet or surpass 6 for "CC(C)[C@H](NC(=O)N(C)Cc1ccccn1)C(=O)NC[C@@H]1O[C@@H]1[C@H](Cc1ccccc1)NC(=O)[C@@H](NC(=O)N(C)Cc1ccccn1)C(C)C" ?
Output: true (1)

Input: Does pKi meet or surpass 6 for "CC(C)[C@H](NC(=O)OCc1ccccc1)C(=O)N[C@@H](Cc1ccccc1)[C@H]1O[C@H]1CNC(=O)[C@H](CC(N)=O)NC(=O)OCc1ccccc1" ?
Output: false (0)

Input: Does pKi meet or surpass 6 for "CC[C@H](C)[C@H](NC(=O)C[C@@H]1O[C@@H]1[C@H](Cc1ccccc1)NC(=O)[C@H](CC(N)=O)NC(=O)c1ccc2ccccc2n1)C(=O)NCc1ccccn1" ?
Output: true (1)

Input: Does pKi meet or surpass 6 for "CC(C)[C@H](NC(=O)OCc1ccccc1)C(=O)N[C@@H](Cc1ccccc1)[C@H]1O[C@H]1CNC(=O)OC(C)(C)C" ?
Output: true (1)

Input: Does pKi meet or surpass 6 for CCC(C)[C@H](NC=O)C(=O)NC[C@@H]1O[C@@H]1[C@H](Cc1ccccc1)NC(=O)[C@H](CC(N)=O)NC(=O)c1ccc2ccccc2n1 (stereo partly drawn) ?
Output: true (1)

* * *

Biological target: HIV-1 protease (Human immunodeficiency virus type 1 group M subtype B, UniProt P04585)
Construct: 2.6 nM of HIV-1 protease
Assay: Assay for inhibitory effect on HIV protease (residual enzyme activity, HPLC of substrate cleavage)
Type: biochemical
Conditions: HIV-1 protease 2.6 nM, pH 5.5; inhibition constant
Give measured Ki for each item. Keep answers brief.
Response body: numeric value in nM, unit text excluded.

Input: Look at this compound and give its reported Ki. COC(=O)C(Cc1ccccc1)NC(=O)C(CCC(N)=O)NC(=O)C[C@@H]1O[C@@H]1[C@H](Cc1ccccc1)NC(=O)[C@H](CC(N)=O)NC(=O)c1ccc2ccccc2n1 (some centres unmarked)
Output: 350

Input: Look at this compound and give its reported Ki. COC(=O)C(CCC(N)=O)NC(=O)C[C@@H]1O[C@@H]1[C@H](Cc1ccccc1)NC(=O)[C@H](CC(N)=O)NC(=O)c1ccc2ccccc2n1 (some centres unmarked)
Output: 370

Input: Look at this compound and give its reported Ki. "CC(C)[C@H](NC=O)C(=O)NC[C@@H]1O[C@@H]1[C@H](Cc1ccccc1)NC(=O)[C@H](CC(N)=O)NC(=O)c1ccc2ccccc2n1"
Output: 850

Input: Look at this compound and give its reported Ki. "NC(=O)C[C@H](NC(=O)c1cnc2ccccc2n1)C(=O)N[C@@H](Cc1ccccc1)[C@H]1O[C@H]1CCc1ccccc1"
Output: 250

Input: Look at this compound and give its reported Ki. "NC(=O)C[C@H](NC(=O)c1ccc2ccccc2n1)C(=O)N[C@@H](Cc1ccccc1)[C@H]1O[C@H]1CNC(=O)[C@@H](NC=O)c1ccccc1"
Output: 1200

Input: Look at this compound and give its reported Ki. "CC(C)C(NC(=O)C[C@@H]1O[C@@H]1[C@H](Cc1ccccc1)NC(=O)[C@H](CC(N)=O)NC(=O)c1ccc2ccccc2n1)C(C)C"
Output: 0.9

Input: Look at this compound and give its reported Ki. "C[C@H](NC(=O)OCc1ccccc1)C(=O)N[C@@H](CC(N)=O)C(=O)N[C@@H](Cc1ccccc1)[C@H]1O[C@H]1CCc1ccccc1"
Output: 260

* * *

Test system: H9 cell or Sup T1 cell
Assay: Cytotoxicity in H9 or Sup T1 cells (trypan blue dye exclusion)
Assay type: cell-based
Details: human, h9 or sup t1 cells
Property Label: CC50

Input: Look at this compound and give its reported CC50. CC(C)[C@H](NC(=O)OCc1ccccc1)C(=O)N[C@@H](Cc1ccccc1)[C@@H](O)[C@H](O)[C@H](Cc1ccccc1)NC(=O)[C@@H](NC(=O)OCc1ccccc1)C(C)C [A-75925, reference compound]
Output: > 100 µM

* * *

Give measured kinact/KI for each item. Keep answers brief.
Target: HIV-1 protease (Human immunodeficiency virus type 1 group M subtype B, UniProt P04585)
Construct: 2.6 nM of HIV-1 protease
Assay: Assay for inhibitory effect on HIV protease (residual enzyme activity, HPLC of substrate cleavage)
Format: biochemical
Settings: second order rate constant; HIV-1 protease, pH 5.5; read-out: kina /KI (converted)
Response body: numeric value in M⁻¹ s⁻¹, unit text excluded.

Input: Look at this compound and give its reported kinact/KI. CC(C)[C@H](NC(=O)OCc1ccncc1)C(=O)NC[C@@H]1O[C@@H]1[C@H](Cc1ccccc1)NC(=O)[C@@H](NC(=O)OCc1ccncc1)C(C)C [compound 79]
Output: 550

Input: Look at this compound and give its reported kinact/KI. CC(C)[C@H](NC(=O)OCc1ccccn1)C(=O)NC[C@@H]1O[C@@H]1[C@H](Cc1ccccc1)NC(=O)[C@@H](NC(=O)OCc1ccccn1)C(C)C [compound 77]
Output: 40000

Input: Look at this compound and give its reported kinact/KI. CC(C)C[C@H](NC(=O)[C@H](CC(N)=O)NC(=O)OCc1ccccc1)[C@H]1O[C@H]1CCc1ccccc1 [compound 56]
Output: 108

Input: Look at this compound and give its reported kinact/KI. NC(=O)C[C@H](NC(=O)COc1cccc2ccccc12)C(=O)N[C@@H](Cc1ccccc1)[C@H]1O[C@H]1CCc1ccccc1 [compound 61]
Output: 2000

Input: Look at this compound and give its reported kinact/KI. COC(=O)C(CCC(N)=O)NC(=O)C[C@@H]1O[C@@H]1[C@H](Cc1ccccc1)NC(=O)[C@H](CC(N)=O)NC(=O)OCc1ccccc1 (stereo partly drawn) [compound 13]
Output: 13800

Input: Look at this compound and give its reported kinact/KI. CC(C)[C@H](CCc1ccccc1)NC(=O)C[C@@H]1O[C@@H]1[C@H](Cc1ccccc1)NC(=O)[C@H](CC(N)=O)NC(=O)c1ccc2ccccc2n1 [compound 44]
Output: 3.83e+06

Input: Look at this compound and give its reported kinact/KI. NC(=O)C[C@H](NC(=O)OCc1ccccc1)C(=O)N[C@@H](Cc1ccccc1)[C@H]1O[C@H]1CCc1ccccc1 [compound 52]
Output: 5000

Input: Look at this compound and give its reported kinact/KI. CC[C@H](C)[C@H](NC(=O)C[C@@H]1O[C@@H]1[C@H](Cc1ccccc1)NC(=O)[C@H](CC(N)=O)NC(=O)c1ccc2ccccc2n1)C(=O)NCc1ccccn1 [compound 9]
Output: 33300

Input: Look at this compound and give its reported kinact/KI. CC[C@H](C)[C@H](NC(=O)C[C@@H]1O[C@@H]1[C@H](Cc1ccccc1)NC(=O)[C@H](CC(N)=O)NC(=O)c1ccc2ccccc2n1)C(=O)NCc1ccccc1 [compound 8]
Output: 33300

Input: Look at this compound and give its reported kinact/KI. CC(C)[C@H](NC(=O)OCc1cccnc1)C(=O)NC[C@@H]1O[C@@H]1[C@H](Cc1ccccc1)NC(=O)[C@@H](NC(=O)OCc1cccnc1)C(C)C [compound 78]
Output: 2330

Input: Look at this compound and give its reported kinact/KI. CC(C)[C@H](NC=O)C(=O)NC[C@@H]1O[C@@H]1[C@H](Cc1ccccc1)NC(=O)[C@H](CC(N)=O)NC(=O)c1ccc2ccccc2n1 [compound 88]
Output: 43300

Input: Look at this compound and give its reported kinact/KI. CCC(C)[C@H](NC=O)C(=O)NC[C@@H]1O[C@@H]1[C@H](Cc1ccccc1)NC(=O)[C@H](CC(N)=O)NC(=O)c1ccc2ccccc2n1 (stereo partly drawn) [compound 90]
Output: 48300
